- target: T1, protein phosphatase 5 (PP5), human, full-length (human, UniProt P53041 1-499)
- T1 chain: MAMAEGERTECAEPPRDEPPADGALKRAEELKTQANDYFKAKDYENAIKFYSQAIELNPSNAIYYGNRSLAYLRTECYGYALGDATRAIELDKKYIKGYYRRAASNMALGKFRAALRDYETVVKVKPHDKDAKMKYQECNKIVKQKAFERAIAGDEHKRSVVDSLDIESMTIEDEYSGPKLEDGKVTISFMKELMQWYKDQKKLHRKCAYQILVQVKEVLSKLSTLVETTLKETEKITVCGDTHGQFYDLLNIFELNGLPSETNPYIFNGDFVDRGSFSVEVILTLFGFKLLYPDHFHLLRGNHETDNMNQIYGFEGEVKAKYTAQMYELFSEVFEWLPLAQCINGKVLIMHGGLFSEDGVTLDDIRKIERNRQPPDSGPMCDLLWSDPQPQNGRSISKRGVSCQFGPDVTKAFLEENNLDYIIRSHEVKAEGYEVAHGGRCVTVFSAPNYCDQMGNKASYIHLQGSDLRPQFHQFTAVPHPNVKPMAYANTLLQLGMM
- assay info: FP
Where no end group is shown, it is not given here.
observable: pKi
Remember, pKi is on a log scale: it is -log10 of the molar concentration.

// returns reported pKi for input Ac-WDDID (optimized EEVD-like pentapeptide from the PSSCL screen; source: synthetic peptide) [optimized acetylated pentapeptide WDDID]
7.22

// returns reported pKi for input Ac-WDDPD (optimized EEVD-like pentapeptide from the PSSCL screen; source: synthetic peptide) [optimized acetylated pentapeptide WDDPD]
7.40

// returns reported pKi for input Ac-WDDVD [optimized acetylated pentapeptide WDDVD]
7.52
